All values here come from ChEMBL document CHEMBL5385848.

# experiment: Cytotoxicity against human HeLa cells incubated for 48 hrs by CCK-8 assay
# Format: toxicity, cell-based
readout.kind: IC50 at 48 h (µM)
Lab book: enter the figure in µM, no units written.

Query: Any idea what its IC50 at 48 h is? The compound is NS(=O)(=O)NCCNc1nonc1C(=NO)Nc1ccc(F)c(Br)c1 [EPACADOSTAT]
Reply: 4.63

Query: Next compound up: `O=C(Cc1ccc(O)cc1)Nc1nnc(CCCNc2nonc2/C(=N\O)Nc2ccc(F)c(Br)c2)s1`
Reply: 10.2

====

Provide the recorded IC50 for the entries that follow.
# study.target: Thioredoxin reductase 1, cytoplasmic (Rattus norvegicus, UniProt O89049)
# Sequence (O89049 whole entry): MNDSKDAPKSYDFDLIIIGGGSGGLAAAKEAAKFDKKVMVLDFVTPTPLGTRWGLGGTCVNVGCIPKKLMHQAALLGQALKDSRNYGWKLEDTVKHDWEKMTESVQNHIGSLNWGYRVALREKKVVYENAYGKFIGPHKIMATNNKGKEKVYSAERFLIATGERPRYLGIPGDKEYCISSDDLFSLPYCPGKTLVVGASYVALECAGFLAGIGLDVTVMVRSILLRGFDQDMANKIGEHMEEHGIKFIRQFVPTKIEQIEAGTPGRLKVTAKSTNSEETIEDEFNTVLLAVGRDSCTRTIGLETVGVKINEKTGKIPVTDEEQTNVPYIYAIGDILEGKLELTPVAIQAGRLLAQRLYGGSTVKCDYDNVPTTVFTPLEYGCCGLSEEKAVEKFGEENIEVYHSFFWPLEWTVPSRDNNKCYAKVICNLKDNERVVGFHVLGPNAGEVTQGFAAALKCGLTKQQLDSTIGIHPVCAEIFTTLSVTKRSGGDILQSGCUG
# experiment: Inhibition of recombinant rat TrxR1 incubated for 1 hr in presence of NADPH by microplate reader analysis
Lab book: enter the figure in µM, no units written.

Query: Any idea what its IC50 is? The molecule is `O=C(Cc1ccc(O)cc1)Nc1nnc(CCCNc2nonc2/C(=N\O)NCCc2ccc(F)cc2)s1`
Reply: 13.5

Query: Next molecule up: `O=C(Cc1cccc(OC(F)(F)F)c1)Nc1nnc(CCCNc2nonc2/C(=N\O)NCCc2ccc(Cl)cc2)s1`
Reply: 7.63

Query: Next molecule up: `O=C(Cc1cccc(OC(F)(F)F)c1)Nc1nnc(CCCNc2nonc2/C(=N\O)NCCc2ccc(Br)cc2)s1`
Reply: 10.5
